Molecular target: IKZF2 (Helios) (Homo sapiens)
Construct: Leu-Asp junction (codons ctcgac before the linker); mScarlet (behind P2A) (C, cleaved yes); expressed in transfected cells
Sequence (Q9UKS7 whole entry): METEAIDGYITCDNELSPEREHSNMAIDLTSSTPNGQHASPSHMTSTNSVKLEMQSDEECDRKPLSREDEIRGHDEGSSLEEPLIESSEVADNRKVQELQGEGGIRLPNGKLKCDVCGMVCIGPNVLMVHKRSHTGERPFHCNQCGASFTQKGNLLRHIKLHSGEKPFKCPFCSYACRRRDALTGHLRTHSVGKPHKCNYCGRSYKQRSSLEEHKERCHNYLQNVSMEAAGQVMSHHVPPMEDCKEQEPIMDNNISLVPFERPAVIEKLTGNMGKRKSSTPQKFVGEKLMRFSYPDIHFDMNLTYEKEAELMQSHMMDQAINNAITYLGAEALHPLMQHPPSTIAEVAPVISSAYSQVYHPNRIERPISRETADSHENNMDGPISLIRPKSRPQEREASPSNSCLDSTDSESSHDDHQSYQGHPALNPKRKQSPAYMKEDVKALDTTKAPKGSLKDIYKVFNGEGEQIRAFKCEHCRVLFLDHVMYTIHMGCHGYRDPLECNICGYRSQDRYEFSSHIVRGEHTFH
Sequence (Q96SW2 whole entry, further chain): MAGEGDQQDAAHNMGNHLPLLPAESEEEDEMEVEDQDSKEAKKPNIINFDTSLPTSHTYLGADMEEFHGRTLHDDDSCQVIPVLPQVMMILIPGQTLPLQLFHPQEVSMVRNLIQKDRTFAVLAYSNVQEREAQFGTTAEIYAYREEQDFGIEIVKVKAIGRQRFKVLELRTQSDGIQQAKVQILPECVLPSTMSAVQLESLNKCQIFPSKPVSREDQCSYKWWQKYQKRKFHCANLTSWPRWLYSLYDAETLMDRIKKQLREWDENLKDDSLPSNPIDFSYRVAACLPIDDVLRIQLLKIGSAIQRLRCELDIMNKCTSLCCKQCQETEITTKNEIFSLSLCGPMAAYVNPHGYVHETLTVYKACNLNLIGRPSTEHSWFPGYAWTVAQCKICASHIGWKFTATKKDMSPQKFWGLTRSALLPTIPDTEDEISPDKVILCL
Sequence (Q16531 whole entry partner): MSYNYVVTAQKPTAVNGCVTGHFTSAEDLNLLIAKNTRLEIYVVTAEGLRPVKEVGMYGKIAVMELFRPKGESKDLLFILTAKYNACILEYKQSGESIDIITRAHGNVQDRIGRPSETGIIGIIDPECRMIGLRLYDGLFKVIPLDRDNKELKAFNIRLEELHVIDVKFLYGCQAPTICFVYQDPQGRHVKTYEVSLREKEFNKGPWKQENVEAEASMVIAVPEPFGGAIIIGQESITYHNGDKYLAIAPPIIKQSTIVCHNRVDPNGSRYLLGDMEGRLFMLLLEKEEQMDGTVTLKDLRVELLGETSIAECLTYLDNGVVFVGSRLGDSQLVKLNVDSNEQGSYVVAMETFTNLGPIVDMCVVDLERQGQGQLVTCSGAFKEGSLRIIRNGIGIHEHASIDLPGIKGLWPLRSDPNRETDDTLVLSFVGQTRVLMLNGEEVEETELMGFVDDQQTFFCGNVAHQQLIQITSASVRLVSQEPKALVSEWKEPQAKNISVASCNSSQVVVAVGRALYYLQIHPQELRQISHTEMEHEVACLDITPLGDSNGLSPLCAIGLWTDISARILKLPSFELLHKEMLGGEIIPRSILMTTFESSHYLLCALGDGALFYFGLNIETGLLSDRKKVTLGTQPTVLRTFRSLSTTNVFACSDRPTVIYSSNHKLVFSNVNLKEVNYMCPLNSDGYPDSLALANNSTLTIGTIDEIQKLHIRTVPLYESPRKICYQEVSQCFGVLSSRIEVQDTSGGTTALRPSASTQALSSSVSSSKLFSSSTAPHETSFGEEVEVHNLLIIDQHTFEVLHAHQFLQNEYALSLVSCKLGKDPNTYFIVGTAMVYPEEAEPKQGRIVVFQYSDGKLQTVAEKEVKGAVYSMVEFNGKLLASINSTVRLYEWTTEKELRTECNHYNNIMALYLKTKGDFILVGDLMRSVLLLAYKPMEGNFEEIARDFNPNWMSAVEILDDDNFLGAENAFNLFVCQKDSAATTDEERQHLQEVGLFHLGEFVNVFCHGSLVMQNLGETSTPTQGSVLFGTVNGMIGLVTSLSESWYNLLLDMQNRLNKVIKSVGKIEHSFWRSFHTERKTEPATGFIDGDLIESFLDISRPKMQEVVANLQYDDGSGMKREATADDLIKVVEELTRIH
Test: IKZF2 reporter degradation assay (HEK 293T IKZF2-mNeonGreen reporter cell line)
Format: cell-based
Conditions: HEK 293T IKZF2-mNeonGreen reporter, 24 hours incubation
A collection of compounds and their measured DC50

Study these solved cases before continuing.
compound="O=C1CCC(N2Cc3cc(O[C@H]4CCCC[C@@H]4N4CC(c5cncc(Cl)c5)C4)ccc3C2=O)C(=O)N1 (mixture of isomers) [Compound 168-B]" study_target="IKZF2 (Helios) (Homo sapiens)" quantity_kind=DC50 observed_measurement="> 30 µM"
compound="O=C1CCC(N2Cc3cc(OC4CCC[C@@H]4N4CC(c5cccnc5)C4)ccc3C2=O)C(=O)N1 (mixture of isomers) [Compound 208-B]" study_target="IKZF2 (Helios) (Homo sapiens)" quantity_kind=DC50 observed_measurement="> 30 µM"

Shift focus to the following entry.
Look at this compound and give its reported DC50. O=C1CCC(N2Cc3cc(OC4CCC[C@@H]4N4CC(c5ccccn5)C4)ccc3C2=O)C(=O)N1 (mixture of isomers) [Compound 210-B]
> 30 µM

###

Target: human E3 ligase component cereblon (CRBN) (Homo sapiens)
Sequence (Q96SW2 whole entry): as the sequence (Q96SW2 whole entry, further chain) above
Sequence (Q16531 whole entry partner): as the sequence (Q16531 whole entry partner) above
Assay: Cereblon (CRBN) target engagement, NanoBRET TE Intracellular E3 Ligase Assay in transfected HEK-293T cells
Conditions: read-out: CRBN Binding EC50
pEC50: −log10 of the molar value.
Quantity Kind: pEC50

Study these solved cases before continuing.
compound="Cc1cnc(C2CN([C@H]3CCCC3Oc3ccc4c(c3)CN(C35CC(C3)C(=O)NC5=O)C4=O)C2)o1 (mixture of isomers) [Compound 145-B]" quantity_kind=pEC50 observed_measurement="< 5.00"
compound="Cc1cnc(C2CN([C@H]3CCCC[C@@H]3Oc3ccc4c(c3)CN(C35CC(C3)C(=O)NC5=O)C4=O)C2)o1 (racemic)" quantity_kind=pEC50 observed_measurement="< 5.00"

Shift focus to the following entry.
Look at this compound and give its reported pEC50. O=C1NC(=O)C2(N3Cc4cc(OC5CCC[C@@H]5N5CC(c6ncc(Cl)cn6)C5)ccc4C3=O)CC1C2 (mixture of isomers) [Compound 156-B]
< 5.00
